- Test system: biotinyl-Leu-oxazolone
- PROCEDURE_SUMMARY: self-aminoacylation, catalytic enhancement (BLO) (fold over background); higher = more active; k-Seq, kA / k0A0; sequences stand for … in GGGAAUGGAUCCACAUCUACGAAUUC…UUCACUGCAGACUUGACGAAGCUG
Variants at the floor of the assay were thinned out.
Category scheme (self-aminoacylation): low interval (below 2), middle interval (2 to below 6), high interval (6 or more)

Worked examples follow.
>>> class_label("UUUACCCGGGUCAUCGAGUGA [Fam2.1 aminoacylation ribozyme variant]")
"high interval"
>>> class_label("AAGUUCGCUAACAGUCGCAAG [Fam3.1 aminoacylation ribozyme variant]")
"low interval"
>>> class_label("CUACUUCACGCAAUCGGUCUG [Fam1A.1 aminoacylation ribozyme variant]")
"low interval"
>>> class_label("ACUGCCCUGGUCAUCGAGUGA [Fam2.1 aminoacylation ribozyme variant]")
"high interval"
>>> class_label("AUUCACCUAGUACAUCGGGUG [Fam2.2 aminoacylation ribozyme variant]")
"middle interval"

Band of AUUCUCCUAGGUCUUCGGGUG [Fam2.2 aminoacylation ribozyme variant] ?
high interval

For AUUACCGCGGUCAUCGAGUGA [Fam2.1 aminoacylation ribozyme variant] then?
high interval

For CCAUACUUCAAGCAAUCCGUC [Fam1B.1 aminoacylation ribozyme variant] then?
low interval

For AUUAGCCUGGUCAUCGAGAGA [Fam2.1 aminoacylation ribozyme variant] then?
low interval

For AAUCACCUAUGUCAUCGGGUG [Fam2.2 aminoacylation ribozyme variant] then?
middle interval

For AUUAGCCUAGGUCAUCGGGUG [Fam2.2 aminoacylation ribozyme variant] then?
high interval

For CUUACCCUGGUCUUCGAGUGA [Fam2.1 aminoacylation ribozyme variant] then?
middle interval

For AAUCACCUAGGUCUUCGGGUG [Fam2.2 aminoacylation ribozyme variant] then?
middle interval

Where do these numbers come from? They come from the supplement of paper PMC9233669.
